# Test system: acetyl transferase (acetyl CoA 10-hydroxytaxane-O-acetyl transferase)
# experimental_details: Substrate specificity of the purified acetyl transferase (conversion of taxane substrates with [2-14C]acetyl CoA)
# Format: biochemical, Taxus chinensis
# particulars: Enzyme: Phenylsepharose eluate (225-fold purified)
metric: pkat (enzyme activity with the substrate) (pkat)

Look over these answered cases.
molecule="CC(=O)OC12COC1CC(O)C1(C)C(=O)C(O)C3=C(C)C(O)CC(O)(C(OC(=O)c4ccccc4)C21)C3(C)C (stereo not drawn) [10-epi-10-DAB III]" measured_result=0
molecule="CC(=O)OC12COC1CC(O)C1(C)C(=O)C(O)C3=C(C)C(O)C(O)C(O)(C(OC(=O)c4ccccc4)C21)C3(C)C (stereo not shown) [14-Hydroxy-10-DAB III, 14-hydroxy-10-deacetylbaccatin III]" measured_result=1.09

[P] CC(=O)O[C@@]12CO[C@@H]1C[C@H](O)[C@@]1(CO)C(=O)[C@H](O)C3=C(C)[C@@H](O)C[C@@](O)([C@@H](OC(=O)c4ccccc4)[C@H]21)C3(C)C [19-Hydroxy-10-DAB III, 19-hydroxy-10-DAB III]
[Q] C=C1[C@@H](OC(C)=O)CC[C@@]2(C)C[C@H](O)C3=C(C)C[C@H](OC(C)=O)[C@@H]([C@@H](OC(C)=O)[C@H]12)C3(C)C [10-Desacetyltaxuyunnanin C, 10-deacetyltaxuyunnanin C]
Which of the two gives a bigger number for pkat (enzyme activity with the substrate): P or Q ? Bench note: the answer is the label of the chosen record. Q
(Q: 1.12 pkat, P: 0.43 pkat)

---

# Test system: acetyl transferase (acetyl CoA 10-hydroxytaxane-O-acetyl transferase)
# experimental_details: Substrate specificity of the purified acetyl transferase (conversion of taxane substrates with [2-14C]acetyl CoA)
# Type: biochemical, Taxus chinensis
# particulars: Enzyme: Phenylsepharose eluate (225-fold purified)
metric: Conversion, based on the conversion of 10-deacetyltaxuyunnanin C (%)

[P] C=C1C(O)CCC2(C)CC(O)C3=C(C)CC(O)C(C(OC(C)=O)C12)C3(C)C (stereo not drawn)
[Q] C=C1C(O)CCC2(C)CC(O)C3=C(C)CC(O)C(C(O)C12)C3(C)C (stereo not drawn)
Hi! Which is lower in terms of Conversion, based on the conversion of 10-deacetyltaxuyunnanin C, the first one P or the second one Q ? Bench note: the answer is the label of the chosen record. Q

[1] CC(=O)OC12COC1CC(O)C1(C)C(=O)C(O)C3=C(C)C(O)C(O)C(O)(C(OC(=O)c4ccccc4)C21)C3(C)C (stereo not drawn) [14-Hydroxy-10-DAB III, 14-hydroxy-10-deacetylbaccatin III]
[2] CC(=O)O[C@@]12CO[C@@H]1C[C@H](OC(=O)OC(C)(C)C)[C@@]1(C)C(=O)[C@H](O)C3=C(C)[C@@H](O)C[C@@](O)([C@@H](OC(=O)c4ccccc4)[C@H]21)C3(C)C
[3] CC[Si](CC)(CC)O[C@H]1C[C@H]2OC[C@@]2(OC(C)=O)[C@H]2[C@H](OC(=O)c3ccccc3)[C@]3(O)C[C@H](O)C(C)=C([C@@H](O)C(=O)[C@]12C)C3(C)C
Order field: Conversion, based on the conversion of 10-deacetyltaxuyunnanin C | Direction: descending (largest first) Write the labels in rank order as requested. 1, 2, 3

---

# Test system: acetyl transferase (acetyl CoA 10-hydroxytaxane-O-acetyl transferase)
# experimental_details: Substrate specificity of the purified acetyl transferase (conversion of taxane substrates with [2-14C]acetyl CoA)
# Assay type: biochemical, Taxus chinensis
# particulars: Enzyme: Phenylsepharose eluate (225-fold purified)
# Experimental: A sufficient amount of the enzyme solution to be tested was pipetted into 50 μl of tris buffer (0.8 M, pH 8.5) in an Eppendorf cap. […] Using a scintillation counter (Multipurpose Scintillation Counter LS 6500, from Beckmann) or a thin-layer radioscanner (Automatic TLC Linear Analyser, from Berthold), the type and the amount of the product formed were determined. The former apparatus was used to determine the conversion and thus the activity of the enzyme using the cpm values counted. […]
metric: pkat (enzyme activity with the substrate) (pkat)

Look over these answered cases.
compound="C=C1C(O)CCC2(C)CC(O)C3=C(C)CC(O)C(C(O)C12)C3(C)C (centres unmarked)" measured_result=0.59
compound=CC(=O)O[C@@]12CO[C@@H]1C[C@H](OC(=O)OC(C)(C)C)[C@@]1(C)C(=O)[C@H](O)C3=C(C)[C@@H](O)C[C@@](O)([C@@H](OC(=O)c4ccccc4)[C@H]21)C3(C)C measured_result=2
compound=CC(=O)O[C@@]12CO[C@@H]1C[C@H](O)[C@@]1(C)C(=O)[C@H](O)C3=C(C)[C@@H](O)C[C@@](O)([C@@H](OC(=O)c4ccccc4)[C@H]21)C3(C)C measured_result=0.9

[I] C=C1C(O)CCC2(C)CC(O)C3=C(C)CC(O)C(C(OC(C)=O)C12)C3(C)C (centres unmarked)
[II] CC[Si](CC)(CC)O[C@H]1C[C@H]2OC[C@@]2(OC(C)=O)[C@H]2[C@H](OC(=O)c3ccccc3)[C@]3(O)C[C@H](O)C(C)=C([C@@H](O)C(=O)[C@]12C)C3(C)C
Which of the two gives a bigger number for pkat (enzyme activity with the substrate): I or II ? Bench note: the answer is the label of the chosen record. I

---

# Tested on: acetyl transferase (acetyl CoA 10-hydroxytaxane-O-acetyl transferase)
# experimental_details: Substrate specificity of the purified acetyl transferase (conversion of taxane substrates with [2-14C]acetyl CoA)
# Assay type: biochemical, Taxus chinensis
# particulars: Enzyme: Phenylsepharose eluate (225-fold purified)
metric: Conversion, based on the conversion of 10-deacetyltaxuyunnanin C (%)

Look over these answered cases.
compound="CC(=O)O[C@@]12CO[C@@H]1C[C@H](O)[C@@]1(C)C(=O)[C@H](O)C3=C(C)[C@@H](O)C[C@@](O)([C@@H](OC(=O)c4ccccc4)[C@H]21)C3(C)C [10-Desacetylbaccatin III, 10-deacetylbaccatin III]" measured_result=80
compound="CC(=O)OC12COC1CC(O)C1(C)C(=O)C(O)C3=C(C)C(O)CC(O)(C(OC(=O)c4ccccc4)C21)C3(C)C (stereo not drawn) [10-epi-10-DAB III]" measured_result=0

[P] C=C1[C@@H](OC(C)=O)CC[C@@]2(C)C[C@H](O)C3=C(C)C[C@H](OC(C)=O)[C@@H]([C@@H](OC(C)=O)[C@H]12)C3(C)C [10-Desacetyltaxuyunnanin C, 10-deacetyltaxuyunnanin C]
[Q] CC(=O)O[C@@]12CO[C@@H]1C[C@H](O)[C@@]1(CO)C(=O)[C@H](O)C3=C(C)[C@@H](O)C[C@@](O)([C@@H](OC(=O)c4ccccc4)[C@H]21)C3(C)C [19-Hydroxy-10-DAB III, 19-hydroxy-10-DAB III]
Hi! Which is lower in terms of Conversion, based on the conversion of 10-deacetyltaxuyunnanin C, the first one P or the second one Q ? Bench note: the answer is the label of the chosen record. Q
